experiment: Inhibition of Baker's yeast alpha-glucosidase using pNGP as substrate after 30 mins by spectrophotometric analysis; design: species or system Saccharomyces cerevisiae
pIC50: −log10 of the molar value.
Readout Label: pIC50

Cc1c2c(cc3c1N(Cc1ccc(C(F)(F)F)cc1)C(=O)C3=O)-c1ccccc1OC2CC(=O)O (stereo unspecified); 3.80
Cc1cc2c(c3c1N(Cc1ccc(C(F)(F)F)cc1)C(=O)C3=O)C(CC(=O)O)Oc1ccccc1-2 (stereo unspecified); 4.29
COC(=O)CC1Nc2ccccc2-c2ccc3c(c21)C(=O)C(=O)N3Cc1ccc(OC)cc1 (stereo unspecified); 4.34

1: COC(=O)CC1Oc2ccccc2-c2cc3c(c(C)c21)N(Cc1ccc(C(F)(F)F)cc1)C(=O)C3=O (stereo unspecified)
2: COC(=O)CC1Oc2ccccc2-c2ccc3c(c21)C(=O)C(=O)N3Cc1ccc(C(F)(F)F)cc1 (stereo unspecified)
3: Cc1c2c(cc3c1N(C)C(=O)C3=O)-c1ccccc1OC2CC(=O)Nc1ccc(-c2ccc(N)cc2)cc1 (stereo unspecified)
4: CN(C)CCNC(=O)CC1Oc2ccccc2-c2ccc3c(c21)C(=O)C(=O)N3Cc1ccc(C(F)(F)F)cc1 (stereo unspecified)
Arrange these 4 molecules in increasing order of pIC50. Output spec: a listing of the labels in the requested order.
4, 1, 2, 3
(4: 3.79, 1: 4.58, 2: 4.80, 3: 5.28)
